Origin of the recorded values: ChEMBL document CHEMBL1128718

# Test system: Pseudomonas aeruginosa
# method.summary: In Vitro antibacterial activity against (Pa) hyperpermeable Pseudomonas aeruginosa […] strain
# Assay type: functional
Entries whose MIC is below 1 µg/mL take yes; entries at or above 1 µg/mL take no.

Below, 3 compounds whose answers are already recorded.
{"compound": "C[C@@H](O)[C@H]1C(=O)N2C(C(=O)O)=C(CN(C)CCC(N)=O)S[C@H]12", "class.label": "no"}
{"compound": "C[C@@H](O)[C@H]1C(=O)N2C(C(=O)O)=C(CN(C)CC(=O)N3CCN(C)CC3)S[C@H]12", "class.label": "no"}
{"compound": "C[C@@H](O)[C@H]1C(=O)N2C(C(=O)O)=C(CN3CCC[C@@H]3C(N)=O)S[C@H]12", "class.label": "yes"}

Task: Confirm or reject: MIC of C[C@@H](O)[C@H]1C(=O)N2C(C(=O)O)=C(CN3C[C@H](O)C[C@H]3C(N)=O)S[C@H]12 lies strictly below 1 µg/mL
Output: yes

Task: Likewise for COC(=O)[C@@H]1CCCN1CC1=C(C(=O)O)N2C(=O)[C@H]([C@@H](C)O)[C@H]2S1 ?
Output: no

Task: Likewise for C[C@@H](O)[C@H]1C(=O)N2C(C(=O)O)=C(CN3C[C@H](O)C[C@@H]3C(N)=O)S[C@H]12 ?
Output: yes

Task: Likewise for C[C@@H](O)[C@H]1C(=O)N2C(C(=O)O)=C(CN3CCCCC3C(N)=O)S[C@H]12 (stereo partly specified) ?
Output: no
